conditions: buffer, pH 10.5
Description: Lipophilicity, chromatographic hydrophobicity index of the compound at pH 10.5 by HPLC method
observed_property: CHI

# example entries with known answers
# get_value(readout='CHI', item= COC(=O)CC[C@H](NC(=O)c1ccc2c(c1)/C(=C/c1[nH]c(C)c(C(=O)N[C@@H](Cc3ccccc3)C(=O)O)c1C)C(=O)N2)C(=O)OC )
46

Same thing, different compound: COC(=O)[C@H](Cc1ccccc1)NC(=O)c1ccc2c(c1)/C(=C/c1[nH]c(C)c(C(=O)O)c1C)C(=O)N2
47

Same thing, different compound: COC(=O)CC[C@H](NC(=O)c1c(C)[nH]c(/C=C2\C(=O)Nc3ccc(C(=O)OC)cc32)c1C)C(=O)OC
73

Same thing, different compound: CCOC(=O)c1c(C)[nH]c(/C=C2\C(=O)Nc3ccc(C(=O)N[C@@H](Cc4ccccc4)C(=O)O)cc32)c1C
58

Same thing, different compound: CCOC(=O)c1c(C)[nH]c(/C=C2\C(=O)Nc3ccc(C(=O)N[C@@H](Cc4ccccc4)C(=O)OC)cc32)c1C
100

Same thing, different compound: Cc1[nH]c(/C=C2\C(=O)Nc3ccccc32)c(C)c1CCC(=O)O [ORANTINIB]
42

Same thing, different compound: CCOC(=O)c1c(C)[nH]c(/C=C2\C(=O)Nc3ccc(C(=O)N[C@@H](CCC(=O)OC)C(=O)OC)cc32)c1C
84

Same thing, different compound: Cc1[nH]c(/C=C2\C(=O)Nc3ccc(C(=O)N[C@@H](Cc4ccccc4)C(=O)O)cc32)c(C)c1C(=O)N[C@@H](Cc1ccccc1)C(=O)O
36

(a) COC(=O)[C@H](Cc1ccccc1)NC(=O)c1ccc2c(c1)/C(=C/c1[nH]c(C)c(C(=O)N[C@@H](Cc3ccccc3)C(=O)OC)c1C)C(=O)N2
(b) COC(=O)[C@H](Cc1ccccc1)NC(=O)c1c(C)[nH]c(/C=C2\C(=O)Nc3ccc(C(=O)O)cc32)c1C
Would you let me know which has the greater CHI value, a or b ? Which one? Tell me its label.
a
(a: 91, b: 49)

(A) COC(=O)CC[C@H](NC(=O)c1c(C)[nH]c(/C=C2\C(=O)Nc3ccc(C(=O)N[C@@H](Cc4ccccc4)C(=O)OC)cc32)c1C)C(=O)OC
(B) COC(=O)CC[C@H](NC(=O)c1c(C)[nH]c(/C=C2\C(=O)Nc3ccc(C(=O)N[C@@H](Cc4ccccc4)C(=O)O)cc32)c1C)C(=O)OC
(C) Cc1[nH]c(/C=C2\C(=O)Nc3ccc(C(=O)O)cc32)c(C)c1C(=O)N[C@@H](Cc1ccccc1)C(=O)O
Reorder: CHI, max to min. Reply: labels, ordered per the request.
A, B, C
(A: 77, B: 47, C: 24)

---

tested on: Receptor-type tyrosine-protein kinase FLT3 (Homo sapiens), P36888 [UNDEFINED MUTATION]; experiment: Inhibition of FLT3 ITD mutant (unknown origin) using TAMRA-Src- tide as substrate at 1.25 uM after 1 hr by fluorescence polarization assay relative to control
Sequence (P36888 whole entry, looked up, change not shown): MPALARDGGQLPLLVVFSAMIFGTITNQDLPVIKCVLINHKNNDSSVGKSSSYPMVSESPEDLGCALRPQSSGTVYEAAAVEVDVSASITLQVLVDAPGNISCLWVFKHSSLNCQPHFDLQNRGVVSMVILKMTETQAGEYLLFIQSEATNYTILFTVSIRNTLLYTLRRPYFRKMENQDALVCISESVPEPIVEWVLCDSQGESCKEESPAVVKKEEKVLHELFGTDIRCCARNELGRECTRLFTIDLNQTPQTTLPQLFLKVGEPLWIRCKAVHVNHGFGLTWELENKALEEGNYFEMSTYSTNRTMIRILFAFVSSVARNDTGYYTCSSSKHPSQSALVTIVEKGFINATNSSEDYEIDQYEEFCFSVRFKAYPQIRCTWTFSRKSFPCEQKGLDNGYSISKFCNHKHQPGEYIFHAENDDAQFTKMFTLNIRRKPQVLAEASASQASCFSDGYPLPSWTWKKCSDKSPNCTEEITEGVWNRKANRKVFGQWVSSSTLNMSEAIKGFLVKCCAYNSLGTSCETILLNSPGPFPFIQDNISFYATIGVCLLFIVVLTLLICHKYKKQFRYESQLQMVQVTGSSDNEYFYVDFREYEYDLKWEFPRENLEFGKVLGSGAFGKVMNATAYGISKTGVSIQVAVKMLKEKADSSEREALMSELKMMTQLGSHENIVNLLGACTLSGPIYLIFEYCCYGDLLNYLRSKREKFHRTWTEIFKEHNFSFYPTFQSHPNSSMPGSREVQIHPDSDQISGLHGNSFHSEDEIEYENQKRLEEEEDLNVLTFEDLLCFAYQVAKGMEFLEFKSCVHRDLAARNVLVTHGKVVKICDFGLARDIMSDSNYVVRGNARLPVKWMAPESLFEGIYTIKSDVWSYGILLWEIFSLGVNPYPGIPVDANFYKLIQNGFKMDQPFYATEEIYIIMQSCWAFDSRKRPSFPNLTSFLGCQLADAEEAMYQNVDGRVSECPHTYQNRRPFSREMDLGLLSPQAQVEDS
observed_property: inhibition (%)

# get_value(readout='inhibition', item= COC(=O)[C@@H](Cc1ccccc1)NC(=O)c1c(C)[nH]c(/C=C2\C(=O)Nc3ccc(C(=O)O)cc32)c1C )
97.4

Same thing, different compound: COC(=O)CC[C@@H](NC(=O)c1ccc2c(c1)/C(=C/c1[nH]c(C)c(C(=O)O)c1C)C(=O)N2)C(=O)OC
80.6

Same thing, different compound: COC(=O)CC[C@H](NC(=O)c1c(C)[nH]c(/C=C2\C(=O)Nc3ccc(C(=O)OC)cc32)c1C)C(=O)OC
87

Same thing, different compound: COC(=O)c1ccc2c(c1)/C(=C/c1[nH]c(C)c(C(=O)N[C@H](Cc3ccccc3)C(=O)OC)c1C)C(=O)N2
47

Same thing, different compound: Cc1[nH]c(/C=C2\C(=O)Nc3ccc(C(=O)O)cc32)c(C)c1C(=O)N[C@H](Cc1ccccc1)C(=O)O
87

(P) COC(=O)CC[C@@H](NC(=O)c1ccc2c(c1)/C(=C/c1[nH]c(C)c(C(=O)N[C@H](CCC(=O)OC)C(=O)OC)c1C)C(=O)N2)C(=O)OC
(Q) COC(=O)[C@@H](Cc1ccccc1)NC(=O)c1ccc2c(c1)/C(=C/c1[nH]c(C)c(C(=O)N[C@H](Cc3ccccc3)C(=O)OC)c1C)C(=O)N2
(R) Cc1[nH]c(/C=C2\C(=O)Nc3ccc(C(=O)N[C@@H](Cc4ccccc4)C(=O)O)cc32)c(C)c1C(=O)N[C@@H](Cc1ccccc1)C(=O)O
Reorder: inhibition, max to min. Reply: labels, ordered per the request.
R, P, Q
(R: 98.7%, P: 62.5%, Q: 35.4%)

---

assay: Aqueous solubility in pH 7.4 phosphate buffer at 120 uM after 24 hrs by HPLC method; assay type: physicochemical
observed_property: solubility at 24 h, 120 µM (µM)

# get_value(readout='solubility at 24 h, 120 µM', item= COC(=O)CC[C@H](NC(=O)c1ccc2c(c1)/C(=C/c1[nH]c(C)c(C(=O)O)c1C)C(=O)N2)C(=O)OC )
100

(P) COC(=O)[C@H](Cc1ccccc1)NC(=O)c1c(C)[nH]c(/C=C2\C(=O)Nc3ccc(C(=O)O)cc32)c1C
(Q) COC(=O)[C@H](Cc1ccccc1)NC(=O)c1ccc2c(c1)/C(=C/c1[nH]c(C)c(C(=O)N[C@@H](Cc3ccccc3)C(=O)O)c1C)C(=O)N2
Would you let me know which has the greater solubility at 24 h, 120 µM value, P or Q ? Which one? Tell me its label.
P
(P: 100 µM, Q: 70 µM)

---

system: Receptor-type tyrosine-protein kinase FLT3 (Homo sapiens), P36888 [UNDEFINED MUTATION]; test: Inhibition of FLT3 ITD mutant (unknown origin) using TAMRA-Src- tide as substrate at 12.5 uM after 1 hr by fluorescence polarization assay relative to control
observed_property: inhibition (%)

# get_value(readout='inhibition', item= CCN(CC)CCNC(=O)c1c(C)[nH]c(/C=C2\C(=O)Nc3ccc(F)cc32)c1C [SUNITINIB] )
94.8

Same thing, different compound: COC(=O)CC[C@@H](NC(=O)c1ccc2c(c1)/C(=C/c1[nH]c(C)c(C(=O)N[C@H](CCC(=O)OC)C(=O)OC)c1C)C(=O)N2)C(=O)OC
75.4

Same thing, different compound: COC(=O)[C@H](Cc1ccccc1)NC(=O)c1ccc2c(c1)/C(=C/c1[nH]c(C)c(C(=O)O)c1C)C(=O)N2
71.6

---

experiment: Lipophilicity, chromatographic hydrophobicity index of the compound at pH 7.4 by HPLC method; assay type: physicochemical; settings: buffer
observed_property: CHI

# get_value(readout='CHI', item= CCOC(=O)c1c(C)[nH]c(/C=C2\C(=O)Nc3ccc(C(=O)N[C@@H](CCC(=O)OC)C(=O)OC)cc32)c1C )
84

(a) Cc1[nH]c(/C=C2\C(=O)Nc3ccc(C(=O)N[C@@H](Cc4ccccc4)C(=O)O)cc32)c(C)c1C(=O)O
(b) COC(=O)c1ccc2c(c1)/C(=C/c1[nH]c(C)c(C(=O)N[C@@H](Cc3ccccc3)C(=O)O)c1C)C(=O)N2
(c) COC(=O)CC[C@H](NC(=O)c1c(C)[nH]c(/C=C2\C(=O)Nc3ccc(C(=O)N[C@@H](Cc4ccccc4)C(=O)OC)cc32)c1C)C(=O)OC
Reorder: CHI, max to min. Reply: labels, ordered per the request.
c, b, a
(c: 78, b: 53, a: 32)

---

assay: Lipophilicity, chromatographic hydrophobicity index of the compound at pH 7.4 by HPLC method; format: physicochemical; details: buffer
observed_property: CHI

# example entries with known answers
# get_value(readout='CHI', item= CCOC(=O)c1c(C)[nH]c(/C=C2\C(=O)Nc3ccc(C(=O)N[C@@H](Cc4ccccc4)C(=O)OC)cc32)c1C )
98

Same thing, different compound: CCN(CC)CCNC(=O)c1c(C)[nH]c(/C=C2\C(=O)Nc3ccc(F)cc32)c1C [SUNITINIB]
57

Same thing, different compound: Cc1[nH]c(/C=C2\C(=O)Nc3ccccc32)c(C)c1CCC(=O)O [ORANTINIB]
47

Same thing, different compound: COC(=O)CC[C@H](NC(=O)c1ccc2c(c1)/C(=C/c1[nH]c(C)c(C(=O)N[C@@H](Cc3ccccc3)C(=O)OC)c1C)C(=O)N2)C(=O)OC
79

(A) Cc1[nH]c(/C=C2\C(=O)Nc3ccc(C(=O)O)cc32)c(C)c1C(=O)N[C@@H](Cc1ccccc1)C(=O)O
(B) CCOC(=O)c1c(C)[nH]c(/C=C2\C(=O)Nc3ccc(C(=O)N[C@@H](Cc4ccccc4)C(=O)O)cc32)c1C
(C) COC(=O)c1ccc2c(c1)/C(=C/c1[nH]c(C)c(C(=O)N[C@@H](Cc3ccccc3)C(=O)OC)c1C)C(=O)N2
Reorder: CHI, max to min. Reply: labels, ordered per the request.
C, B, A
(C: 88, B: 60, A: 29)
